Here, each record is paired with measured growth data.
Test system: NCI-H322M lung
Test: NCI-60 one-dose screen, 48 h (100 = growth as untreated, 0 = no growth, -100 = all killed)
Conditions: 10 µM unless noted
Description: Growth inhibition of the NCI-H322M human Non-Small Cell Lung tumor cell line is measured as a screen for anti-cancer activity. Cells are grown in 96 well plates and exposed to the test compound for 48 hours. Compounds are tested at a single concentration, which is 10^-5 M for most compounds. The reported endpoint is percent growth (GI% or GIPRCNT), where numbers from 0 - 100% represent growth inhibition, and numbers from -100% - 0 represent cell death. […]
About 83,000 compounds went through this panel and 20% of them were active in at least one assay; those are over-represented in the sample as a whole.
Outcome Measure: growth (%)

| Molecule | Reported Value |
| --- | --- |
| FC(F)(F)c1ccccc1-c1cn2c(ccc3ccccc32)n1 | 96.1 |
| COc1ccc(C(=O)N2NC(=O)/C(=C/c3ccccc3F)N=C2c2ccccc2)cc1 | 110 |
| CN(C)c1nc2c(N)ncnc2n1C1OC(CO)C(O)C1O (stereo unspecified) | 122 |
| CCN(CC)c1ccc(C(=N)c2ccc(N(CC)CC)cc2)cc1 | 16.2 |
| Cc1ccc(-c2csc(NC(=O)CCCCl)n2)cc1 | 87.4 |
| O=C(NNC(=S)Nc1ccccc1)c1cc2ccc1CCc1ccc(cc1)CC2 | 77.7 |
| Cc1ccc(Cc2c(C=O)nc(N)[nH]c2=O)c2ccccc12 | 119 |
| O=c1[nH]c(NCc2ccccc2)nc2nc(Nc3ccc(NC(=S)Nc4ccccc4)cc3)nc(-c3ccc(O)cc3O)c12 | 140 |
| N=C(N)c1ccc(-c2cc(Cl)cc(Cl)c2)cn1 | 94 |
| O=C1Nc2ccc3c(c2/C1=C\c1cc2c(cc1Br)OCO2)OCO3 | 1.4 |
| CSc1nc2c(c(=O)[nH]1)C(c1ccc(C)cc1)C=C(C(=O)O)N2 (stereo unspecified) | 101 |

---

Documented growth across a set of compounds
tested on: HT29 colon; experiment: NCI-60 one-dose screen, 48 h (100 = growth as untreated, 0 = no growth, -100 = all killed); conditions: 10 µM unless noted
About 83,000 compounds went through this panel and 20% of them were active in at least one assay; those are over-represented in the sample as a whole.
Outcome Measure: growth (%)

| Compound | Reported Value |
| --- | --- |
| CC(NNC(C)c1ccccc1)c1ccccc1 (stereo not given) | 95.2 |
| COc1cccc(/C=C2\Oc3cc(OCCCN4CCCC4)ccc3C2=O)c1OC | 48.6 |
| Cc1ccc(S(=O)(=O)NCCNc2nccc(-c3c(-c4ccc(O)cc4)nc4sccn34)n2)cc1 | 78.9 |
| COc1ccc(S(=O)(=O)NCCCNc2nccc(-c3c(-c4cccc([N+](=O)[O-])c4)nc4sccn34)n2)cc1 | 31.1 |
| NC1=NC(SCc2ccccc2CCl)c2ncn(Cc3ccccc3CCl)c2N1 (stereo not given) | 14.4 |
| COc1ccc(N2CCN(Cc3cc(C(=O)/C=C/c4c[nH]c5ccccc45)ccc3O)CC2)cc1 | 106 |
| COc1cc(C2NN=C3c4ccccc4CCC32)cc(OC)c1OC (stereo not given) | 105 |
| CCO/C=N/C1=C(C#N)C(c2ccc(Cl)cc2)c2c(c3ccc(C)cc3[nH]c2=O)O1 (stereo not given) | 80.5 |
| COc1cc(/C=C/C(=O)c2c(C)nc3ccccc3c2C)ccc1OCCCCOc1cc2c(cc1OC)C(=O)N1CCC[C@H]1C=N2 | -73.3 |
| Cc1ccc(S(=O)(=O)NCCNc2cc(-c3cn(C(C)(C)C)nc3-c3cccc(O)c3)ccn2)cc1 | 17.2 |
| CCCCCCCCC(C)OC(=O)c1nn(C(C)=O)c2ccccc12 (stereo not given) | 103 |
| N#Cc1c(Nc2ccccc2)nc2n(c1=O)-c1ccccc1Sc1ccccc1-2 | 84.1 |
| COC1=C(OC)C(=O)C(CCCCCCCCCC[P+](c2ccccc2)(c2ccccc2)c2ccccc2)=C(C)C1=O | -10.6 |
| CC12CCC3C4(C)COC(c5ccccc5Cl)OC4CCC3(C)C1CC(C1=CCOC1=O)O2 (stereo not given) | 57.1 |
| O=[N+]([O-])c1ccc(Sc2ncccn2)c([N+](=O)[O-])c1 | 62.2 |
| COc1cc(-c2nn(-c3cccc(NC(=O)c4ccc(N5CCOCC5)c(C(F)(F)F)c4)c3)cc2-c2ccncc2)ccc1Cl | -13.3 |
| S=C(S)NCCc1c[nH]c2ccccc12 | 110 |
| CCOC(=O)c1c(/N=C2\SC(=O)/C(=C\C(=O)OC)N2NC)sc2c1CCN(C(=O)OCC)C2 | 99 |
| CCOC(=O)c1cc(C(=O)c2cc(OC)c(OC)c(OC)c2)n2c1ccc1ccccc12 | 9.65 |
| Nc1cc2c([nH]c[n+]2CC#CCCl)c(SCC#CCCl)n1 | -50.3 |

These data points were gathered from PubChem BioAssay (NCI).
